Every entry's value here was drawn from ChEMBL document CHEMBL3217532.

Here the recorded MIC90 is given for each entry.
tested on: Pseudomonas aeruginosa; test: Antimicrobial activity against Pseudomonas aeruginosa 1619-08; type: functional
// return numeric value only (unit: µg/mL, not printed)

Check out these entries, answers already filled in.
INSERT INTO assay_data (compound_smiles, assay_system, quantity_kind, readout_number) VALUES
  ('C[C@H]1[C@H](NC(=O)/C(=N\OC(C)(C)C(=O)O)c2csc(N)n2)C(=O)N1C(=O)NS(=O)(=O)n1nc(-c2cc(=O)c(O)c[nH]2)n(CC(N)=O)c1=O', 'Pseudomonas aeruginosa', 'MIC90', 0.06),
  ('C[C@@H](O)[C@H]1C(=O)N2C(C(=O)O)=C(S[C@@H]3CN[C@H](C(=O)N(C)C)C3)[C@H](C)[C@H]12', 'Pseudomonas aeruginosa', 'MIC90', 4),
  ('C[C@H](O)Cn1c(-c2cc(=O)c(O)c[nH]2)nn(S(=O)(=O)NC(=O)N2C(=O)[C@@H](NC(=O)/C(=N\OC(C)(C)C(=O)O)c3csc(N)n3)[C@@H]2C)c1=O', 'Pseudomonas aeruginosa', 'MIC90', 0.03),
  ('C[C@H]1[C@H](NC(=O)/C(=N\OC(C)(C)C(=O)O)c2csc(N)n2)C(=O)N1C(=O)NS(=O)(=O)n1nc(-c2cc(=O)c(O)c[nH]2)n(C[C@@H](O)CO)c1=O', 'Pseudomonas aeruginosa', 'MIC90', 0.015),
  ('C[C@H]1[C@H](NC(=O)/C(=N\OC(C)(C)C(=O)O)c2csc(N)n2)C(=O)N1C(=O)NS(=O)(=O)n1nc(-c2cc(=O)c(O)c[nH]2)n(C)c1=O', 'Pseudomonas aeruginosa', 'MIC90', 0.03),
  ('CC1(C)[C@H](NC(=O)/C(=N\OCc2cc(=O)c(O)cn2O)c2csc(N)n2)C(=O)N1OS(=O)(=O)O', 'Pseudomonas aeruginosa', 'MIC90', 0.06);

Next compound, MIC90 to be filled in.
Query: Request - read-out MIC90 | tested on Pseudomonas aeruginosa | compound CC(C)(O/N=C(\C(=O)N[C@H]1CN(C(=O)NS(=O)(=O)n2nc(-c3cc(=O)c(O)c[nH]3)n(C[C@@H](O)CO)c2=O)C1=O)c1csc(N)n1)C(=O)O
Result: 0.06

* * *

Here the recorded MIC90 is given for each entry.
tested on: Pseudomonas aeruginosa; experiment: Antimicrobial activity against Pseudomonas aeruginosa 1526-08; assay type: functional

INSERT INTO results (compound_smiles, quantity_kind, result) VALUES
  ('C[C@H]1[C@H](NC(=O)/C(=N\OC(C)(C)C(=O)O)c2csc(N)n2)C(=O)N1C(=O)NS(=O)(=O)n1nc(-c2cc(=O)c(O)c[nH]2)n(C)c1=O', 'MIC90', '0.25 µg/mL'),
  ('C[C@H](O)Cn1c(-c2cc(=O)c(O)c[nH]2)nn(S(=O)(=O)NC(=O)N2C(=O)[C@@H](NC(=O)/C(=N\OC(C)(C)C(=O)O)c3csc(N)n3)[C@@H]2C)c1=O', 'MIC90', '0.125 µg/mL'),
  ('C[C@@H](O)[C@H]1C(=O)N2C(C(=O)O)=C(S[C@@H]3CN[C@H](C(=O)N(C)C)C3)[C@H](C)[C@H]12', 'MIC90', '> 64 µg/mL');

Query: Using the record for CC(C)(O/N=C(\C(=O)N[C@H]1CN(C(=O)NS(=O)(=O)n2nc(-c3cc(=O)c(O)c[nH]3)n(C[C@@H](O)CO)c2=O)C1=O)c1csc(N)n1)C(=O)O , report its MIC90.
Result: 0.5 µg/mL

Query: Using the record for C[C@H]1[C@H](NC(=O)/C(=N\OC(C)(C)C(=O)O)c2csc(N)n2)C(=O)N1C(=O)NS(=O)(=O)n1nc(-c2cc(=O)c(O)c[nH]2)n(C[C@@H](O)CO)c1=O , report its MIC90.
Result: 0.125 µg/mL

Query: Using the record for CC1(C)[C@H](NC(=O)/C(=N\OCc2cc(=O)c(O)cn2O)c2csc(N)n2)C(=O)N1OS(=O)(=O)O , report its MIC90.
Result: 0.5 µg/mL

Query: Using the record for C[C@H]1[C@H](NC(=O)/C(=N\OC(C)(C)C(=O)O)c2csc(N)n2)C(=O)N1C(=O)NS(=O)(=O)n1nc(-c2cc(=O)c(O)c[nH]2)n(CC(N)=O)c1=O , report its MIC90.
Result: 0.5 µg/mL
